System: RS4;11 cells
Test: RS4;11 cell viability assay (CellTiter Glo);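 further: acute lymphoblastic leukemia line RS4,11, EC50 derived from percentage of viable cells after treatment relative to untreated controls, cell killing taken as a measure of Bcl-2 inhibition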
Type: cell-based, human
Details: Homo sapiens, RS4-11, 48 h, 50,000 cells per well, 10% human serum, 48 hours; read-out: RS4; 11 EC50 Values
pEC50: −log10 of the molar value.
Each entry gets label 0 if its pEC50 stays under 7, and label 1 if its pEC50 is 7 or above.

Determine whether measured pEC50 meets or exceeds 7 for CC1(C)CCC(CN2CCN(c3ccc(C(=O)NS(=O)(=O)c4ccc(OCC5CN(C6CC6)CCO5)c(Cl)c4)c(Oc4cnc5[nH]ccc5c4)c3)CC2)=C(c2ccc(Cl)cc2)C1 (stereo not shown)
label 0

Determine whether measured pEC50 meets or exceeds 7 for CC(C)N1CCC2(CCC(c3ccc(Cl)cc3)=C(CN3CCN(c4ccc(C(=O)NS(=O)(=O)c5cnc(OCC6CCOCC6)c(Cl)c5)c(Oc5cnc6[nH]ccc6c5)c4)CC3)C2)CC1
label 1

Determine whether measured pEC50 meets or exceeds 7 for CN(C)CC(=O)N1CCC(COc2ncc(S(=O)(=O)NC(=O)c3ccc(N4CCN(CC5=C(c6ccc(Cl)cc6)CC(C)(C)CC5)CC4)cc3Oc3cnc4[nH]ccc4c3)cc2Cl)CC1
label 1

Determine whether measured pEC50 meets or exceeds 7 for CC1(C)CCC(CN2CCN(c3ccc(C(=O)NS(=O)(=O)c4ccc(NC[C@@H]5CN(C6CC6)CCO5)c([N+](=O)[O-])c4)c(Oc4cnc5[nH]ccc5c4)c3)CC2)=C(c2ccc(Cl)cc2)C1
label 1

Determine whether measured pEC50 meets or exceeds 7 for CC1(C)CCC(CN2CCN(c3ccc(C(=O)NS(=O)(=O)c4cnc(O[C@@H]5CCN(CC(F)F)C5)c(Cl)c4)c(Oc4cnc5[nH]ccc5c4)c3)CC2)=C(c2ccc(Cl)cc2)C1
label 0

Determine whether measured pEC50 meets or exceeds 7 for CC1(C)CCC(CN2CCN(c3ccc(C(=O)NS(=O)(=O)c4ccc(NCC5CN(C(CF)CF)CCO5)c([N+](=O)[O-])c4)c(Oc4cnc5[nH]ccc5c4)c3)CC2)=C(c2ccc(Cl)cc2)C1 (stereo not shown)
label 1

Determine whether measured pEC50 meets or exceeds 7 for CC1(C)CCC(CN2CCN(c3ccc(C(=O)NS(=O)(=O)c4ccc(NC5CN(C6CCOCC6)C5)c([N+](=O)[O-])c4)c(Oc4cnc5[nH]ccc5c4)c3)CC2)=C(c2ccc(Cl)cc2)C1
label 1

Determine whether measured pEC50 meets or exceeds 7 for CC1(C)CCC(CN2CCN(c3ccc(C(=O)NS(=O)(=O)c4ccc(NCC5CCOCC5)c(C#N)c4)c(Oc4cnc5[nH]ccc5c4)c3)CC2)=C(c2ccc(Cl)cc2)C1
label 0

Determine whether measured pEC50 meets or exceeds 7 for CC1(C)CCC(CN2CCN(c3ccc(C(=O)NS(=O)(=O)c4cnc(OCC5CCOCC5)c(C(F)(F)F)c4)c(Oc4cnc5[nH]ccc5c4)c3)CC2)=C(c2ccc(Cl)cc2)C1
label 0

Determine whether measured pEC50 meets or exceeds 7 for CC1(C)CCC(c2ccc(Cl)cc2)=C(CN2CCN(c3ccc(C(=O)NS(=O)(=O)c4ccc(OCC5(F)CCOCC5)c([N+](=O)[O-])c4)c(Oc4cnc5[nH]ccc5c4)c3)CC2)C1
label 1

Determine whether measured pEC50 meets or exceeds 7 for COC1(Cc2ccccc2-c2ccc(Cl)cc2)CCN(c2ccc(C(=O)NS(=O)(=O)c3ccc(NCC4CCOCC4)c([N+](=O)[O-])c3)c(Oc3cnc4[nH]ccc4c3)c2)CC1
label 0

Determine whether measured pEC50 meets or exceeds 7 for CC1(C)CCC(CN2CCN(c3ccc(C(=O)NS(=O)(=O)c4cnc(OCC5CCc6nccn6C5)c(Cl)c4)c(Oc4cnc5[nH]ccc5c4)c3)CC2)=C(c2ccc(Cl)cc2)C1 (stereo not shown)
label 1

Determine whether measured pEC50 meets or exceeds 7 for CC1(C)CCC(CN2CCN(c3ccc(C(=O)NS(=O)(=O)c4ccc(NC[C@H]5CCN(C6CCOCC6)C5)c([N+](=O)[O-])c4)c(Oc4cnc5[nH]ccc5c4)c3)CC2)=C(c2ccc(Cl)cc2)C1
label 1

Determine whether measured pEC50 meets or exceeds 7 for COCCOc1ncc(S(=O)(=O)NC(=O)c2ccc(N3CCN(CC4=C(c5ccc(Cl)cc5)CC(C)(C)CC4)CC3)cc2Oc2cnc3[nH]ccc3c2)cc1Cl
label 0

Determine whether measured pEC50 meets or exceeds 7 for CC1(C)CCC(CN2CCN(c3ccc(C(=O)NS(=O)(=O)c4ccc(N[C@@H]5CCN(C(CF)CF)C5)c(S(=O)(=O)C(F)(F)F)c4)c(Oc4cnc5[nH]ccc5c4)c3)CC2)=C(c2ccc(Cl)cc2)C1
label 0

Determine whether measured pEC50 meets or exceeds 7 for CC1(C)CCC(CN2CCN(c3ccc(C(=O)NS(=O)(=O)c4ccc(N[C@@H]5CCN(C6COC6)C5)c([N+](=O)[O-])c4)c(Oc4cnc5[nH]ccc5c4)c3)CC2)=C(c2ccc(Cl)cc2)C1
label 1

Determine whether measured pEC50 meets or exceeds 7 for CC1(C)CCC(CN2CCN(c3ccc(C(=O)NS(=O)(=O)c4ccc(N[C@H]5CC[C@H](N6CCN(C7CCOCC7)CC6)CC5)c([N+](=O)[O-])c4)c(Oc4cnc5[nH]ccc5c4)c3)CC2)=C(c2ccc(Cl)cc2)C1
label 1

Determine whether measured pEC50 meets or exceeds 7 for CC1(C)CCC(CN2CCN(c3ccc(C(=O)NS(=O)(=O)c4ccc(N[C@@H]5CCN(C6CC6)C5)c([N+](=O)[O-])c4)c(Oc4cnc5[nH]ccc5c4)c3)CC2)=C(c2ccc(Cl)cc2)C1
label 1

Where do the numbers come from? From patent US20240043404A1.
